Data credit: patent US10980889B1

Examples of compounds with documented IC50 follow.
Test system: P-Akt (S473)
Assay: Cell based AlphaLISA assay, inhibition of P-Akt (S473) in MDA-MB-468 cells (mTORC2 substrate)
Conditions: Homo sapiens, 4 h, AlphaLisa, two to four hours at 37° C., read-out: pIC50 for Inhibition of mTORC1 and mTORC2 Substrate Phosphorylation p-AKT1/2/3-(S473) (converted)
Protocol: Cell Based AlphaLISA Assays For Determining IC50 For Inhibition of P-Akt (S473), P-4E-BP1(T37/46), and P-P70S6K (T389) in MDA-MB-468 Cells mTOR Kinase Cellular Assay To measure functional activity of mTORC1 and mTORC2 in cells the phosphorylation of 4EBPT (Thr37/46) and P70S6K (Thr389), and AKT1/2/3 (Ser473) was monitored using AlphaLisa SureFire Ultra Kits (Perkin Elmer). […] Incubations were terminated by removal of the assay buffer and addition of lysis buffer provided with the assay kit. […]

- COMPOUND: "CO[C@H]1C[C@@H]2CC[C@@H](C)[C@@](O)(O2)C(=O)C(=O)N2CCCC[C@H]2C(=O)O[C@H]([C@H](C)C[C@@H]2CC[C@@H](OC(=O)NCc3cnc(N4CCN(CCOCCOCCOCCOCCC(=O)N5CCc6cc(Cn7nc(-c8ccc9oc(N)nc9c8)c8c(N)ncnc87)ccc6C5)CC4)nc3)[C@H](OC)C2)CC(=O)[C@H](C)/C=C(\\C)[C@@H](O)[C@@H](OC)C(=O)[C@H](C)C[C@H](C)/C=C/C=C/C=C/1C [Example 88]"
  IC50: "3.16 to 31.6 nM"

Please examine the following record next.
INPUT: # return recorded IC50 for input CO[C@H]1C[C@@H]2CC[C@@H](C)[C@@](O)(O2)C(=O)C(=O)N2CCCC[C@H]2C(=O)O[C@H]([C@H](C)C[C@@H]2CC[C@@H](OC(=O)NCc3cnc(N4CCN(C(=O)CCOCCN5CCN(c6ncc(C(=O)NCCS(=O)(=O)c7ccc(C(=O)N8CCOc9ccc(-c%10ccc(N)nc%10)cc9C8)c(C)c7)cn6)CC5)CC4)nc3)[C@H](OC)C2)CC(=O)[C@H](C)/C=C(\C)[C@@H](O)[C@@H](OC)C(=O)[C@H](C)C[C@H](C)/C=C/C=C/C=C/1C [Example 124]
OUTPUT: 3.16 to 31.6 nM

----------
system: P-Akt (S473); assay: Cell based AlphaLISA assay, inhibition of P-Akt (S473) in MDA-MB-468 cells (mTORC2 substrate); conditions: Homo sapiens, 4 h, AlphaLisa, two to four hours at 37° C., read-out: pIC50 for Inhibition of mTORC1 and mTORC2 Substrate Phosphorylation p-AKT1/2/3-(S473) (converted)
MEASUREMENT TYPE: IC50

Sample records with IC50:
- CPD SMILES: "CO[C@H]1C[C@@H]2CC[C@@H](C)[C@@](O)(O2)C(=O)C(=O)N2CCCC[C@H]2C(=O)O[C@H]([C@H](C)C[C@@H]2CC[C@@H](OC(=O)NCc3cnc(N4CCN(c5ncc(C(=O)NCCOCCOCCOCCOCCC(=O)N6CCc7cc(Cn8nc(-c9ccc%10oc(N)nc%10c9)c9c(N)ncnc98)ccc7C6)c(N)n5)CC4)nc3)[C@H](OC)C2)C[C@@H](OC)[C@H](C)/C=C(\\C)[C@@H](O)[C@@H](OC)C(=O)[C@H](C)C[C@H](C)/C=C/C=C/C=C/1C"
  IC50: "< 3.16 nM"
- CPD SMILES: "CO[C@H]1C[C@@H]2CC[C@@H](C)[C@@](O)(O2)C(=O)C(=O)N2CCCC[C@H]2C(=O)O[C@H]([C@H](C)C[C@@H]2CC[C@@H](OC(=O)NCCOCCOCCOCCOCCOCCOCCOCCOCCC(=O)NCCS(=O)(=O)c3ccc(C(=O)N4CCOc5ccc(-c6ccc(N)nc6)cc5C4)c(C)c3)[C@H](OC)C2)C[C@@H](O)[C@H](C)/C=C(\\C)[C@@H](O)[C@@H](OC)C(=O)[C@H](C)C[C@H](C)/C=C/C=C/C=C/1C"
  IC50: "> 1000 nM"

INPUT: # return recorded IC50 for input CO[C@H]1C[C@@H]2CC[C@@H](C)[C@@](O)(O2)C(=O)C(=O)N2CCCC[C@H]2C(=O)O[C@H]([C@H](C)C[C@@H]2CC[C@@H](OC(=O)NCc3cnc(N4CCN(C(=O)CCOCCN5CCN(c6ncc(C(=O)N7CCc8cc(Cn9nc(-c%10ccc%11oc(N)nc%11c%10)c%10c(N)ncnc%109)ccc8C7)cn6)CC5)[C@@H](C(=O)O)C4)nc3)[C@H](OC)C2)C[C@@H](OC)[C@H](C)/C=C(\C)[C@@H](O)[C@@H](OC)C(=O)[C@H](C)C[C@H](C)/C=C/C=C/C=C/1C
OUTPUT: > 1000 nM

INPUT: # return recorded IC50 for input CO[C@H]1C[C@@H]2CC[C@@H](C)[C@@](O)(O2)C(=O)C(=O)N2CCCC[C@H]2C(=O)O[C@H]([C@H](C)C[C@@H]2CC[C@@H](OC(=O)NCc3cnc(N4CCN(CCOCCN5CCN(c6ncc(C(=O)N7CCc8cc(Cn9nc(-c%10ccc%11oc(N)nc%11c%10)c%10c(N)ncnc%109)ccc8C7)cn6)CC5)CC4)nc3)[C@H](OC)C2)C[C@@H](OC)[C@H](C)/C=C(\C)[C@@H](O)[C@@H](OC)C(=O)[C@H](C)C[C@H](C)/C=C/C=C/C=C/1C
OUTPUT: 31.6 to 1000 nM

INPUT: # return recorded IC50 for input CO[C@H]1C[C@@H]2CC[C@@H](C)[C@@](O)(O2)C(=O)C(=O)N2CCCC[C@H]2C(=O)O[C@H]([C@H](C)C[C@@H]2CC[C@@H](OC(=O)NCCOCCOCCN3C[C@@H]4C[C@H]3CN4CCOCCOCCOCCOCCC(=O)N3CCc4cc(Cn5nc(-c6ccc7oc(N)nc7c6)c6c(N)ncnc65)ccc4C3)[C@H](OC)C2)C[C@@H](O)[C@H](C)/C=C(\C)[C@@H](O)[C@@H](OC)C(=O)[C@H](C)C[C@H](C)/C=C/C=C/C=C/1C
OUTPUT: 3.16 to 31.6 nM
